# TEST_SYSTEM: Arabidopsis thaliana BioDA variant enzymes (Arabidopsis thaliana, UniProt B0F481, W392G)
# Construct: with the predicted N-terminal mitochondrial transit peptide removed; 6xHis-tag (N); thrombin cleavage site (N)
# Sequence (B0F481 24-833 W392G): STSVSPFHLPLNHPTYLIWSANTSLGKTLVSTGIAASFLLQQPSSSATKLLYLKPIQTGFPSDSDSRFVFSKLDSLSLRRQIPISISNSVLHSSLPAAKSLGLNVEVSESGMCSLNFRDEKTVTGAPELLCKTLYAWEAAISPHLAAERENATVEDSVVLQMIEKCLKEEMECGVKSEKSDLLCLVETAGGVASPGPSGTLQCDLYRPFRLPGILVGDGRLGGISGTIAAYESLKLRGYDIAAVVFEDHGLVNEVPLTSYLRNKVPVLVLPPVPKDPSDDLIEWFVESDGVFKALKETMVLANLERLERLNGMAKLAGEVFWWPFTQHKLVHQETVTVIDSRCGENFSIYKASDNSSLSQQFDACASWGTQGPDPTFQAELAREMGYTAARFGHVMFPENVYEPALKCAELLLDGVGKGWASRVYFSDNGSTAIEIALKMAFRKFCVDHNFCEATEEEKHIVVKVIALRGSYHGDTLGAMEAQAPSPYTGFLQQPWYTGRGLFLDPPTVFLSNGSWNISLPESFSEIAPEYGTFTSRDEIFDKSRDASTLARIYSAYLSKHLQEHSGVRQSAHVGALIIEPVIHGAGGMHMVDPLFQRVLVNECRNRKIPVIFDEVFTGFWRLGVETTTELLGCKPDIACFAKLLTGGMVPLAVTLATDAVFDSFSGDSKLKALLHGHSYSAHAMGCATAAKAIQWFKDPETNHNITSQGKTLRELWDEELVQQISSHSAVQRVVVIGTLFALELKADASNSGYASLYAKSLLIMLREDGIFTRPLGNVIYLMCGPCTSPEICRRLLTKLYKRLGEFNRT
# MEASUREMENT_NOTES: biochemical
ASSAY_READOUT: IC50 (µM)

{"SMILES_REPRESENTATION": "CCn1c(Cn2ccc(C(F)(F)F)n2)cc(=O)c(C(=O)O)c1-c1ccc(Cl)c(Cl)c1", "UNIT_LABEL": "µM", "NUMERIC_VALUE": 17.7}
